experimental-details: in vitro
reported-conditions: chlorocebus sabaeus, Vero E6 (Vero C1008) cells, CC50
readout-type: CC50 at 48 h

molecule	measured-value
COc1ccc(C[C@@H]2c3cc(OC)c(OC)cc3CC[N@+]2(C)CCC(=O)OCCCCCOC(=O)CC[N@@+]2(C)CCc3cc(OC)c(OC)cc3[C@H]2Cc2ccc(OC)c(OC)c2)cc1OC	> 20 µM
COC(=O)N[C@H](C(=O)N1CCC[C@H]1c1ncc(-c2ccc(-c3ccc(-c4cnc([C@@H]5CCCN5C(=O)[C@@H](NC(=O)OC)C(C)C)[nH]4)cc3)cc2)[nH]1)C(C)C	~19.7 µM
C=C1CC[C@@H]2[C@](C)(CO)[C@H](O)CC[C@@]2(C)[C@@H]1C/C=C1/C(=O)OC[C@H]1O [ANDROGRAPHOLIDE]	~21.6 µM

Now examine the next entry.
Lookup: Requested field: CC50 at 48 h. Item: CC1(C)S[C@@H]2[C@H](NC(=O)C(C(=O)O)c3ccccc3)C(=O)N2[C@H]1C(=O)O (some centres undefined) [CARBENICILLIN]
Found: > 20 µM

###

experimental-details: in vitro
reported-conditions: chlorocebus sabaeus, Vero E6 (Vero C1008) cells, pCC50
readout-type: log10 of CC50 at 48 h (log10 of the value in µM)
Kindly note that the scale is log10 and the underlying CC50 at 48 h is in µM.

compound	readout-type	measured-value
O=C1CCc2ccc(OCCCCN3CCN(c4cccc(Cl)c4Cl)CC3)cc2N1	log10 of CC50 at 48 h	1.05
c1ccc(CN(CCN(Cc2ccccn2)Cc2ccccn2)Cc2ccccn2)nc1	log10 of CC50 at 48 h	0.28
CN(C)CCOC(C)(c1ccccc1)c1ccc(Cl)cc1 (configuration not stated)	log10 of CC50 at 48 h	1.45
CN1CCCC(n2nc(Cc3ccc(Cl)cc3)c3ccccc3c2=O)CC1 (configuration not stated)	log10 of CC50 at 48 h	1.25

Lookup: Requested field: log10 of CC50 at 48 h. Item: CN[C@@H]1C[C@@H](c2ccc(Cl)c(Cl)c2)c2ccccc21 [(R,S)-INDATRALINE]
Found: 0.93

###

Below, each of the compounds is paired with its reported CC50 at 48 h value.
experimental-details: in vitro
reported-conditions: chlorocebus sabaeus, Vero E6 (Vero C1008) cells, pCC50
The figure you give is taken to be in µM; do not add the unit.

Use the examples below as a reference point.
compound	CC50 at 48 h (µM)
CCN(CC)CCOC1(c2ccccc2)CCN(CCNc2ccccc2)CC1	46.8
C=CC(=O)Nc1cc(Nc2nccc(-c3cn(C)c4ccccc34)n2)c(OC)cc1N(C)CCN(C)C	3.09
Cc1ccc(C(=O)Oc2ccc(C(O)CNC(C)(C)C)cc2OC(=O)c2ccc(C)cc2)cc1 (configuration not stated)	5.62
OC(CCCN1CCc2c(c3cc(F)ccc3n2-c2ccc(F)cc2)C1)c1ccc(F)cc1 (configuration not stated)	6.92
OC(Cn1cncn1)(Cn1cnc(/C=C/c2ccc(OCC(F)(F)C(F)F)cc2)n1)c1ccc(F)cc1F (configuration not stated)	25.7

Lookup: Requested field: CC50 at 48 h. Item: `CC(=O)c1ccc2c(c1)N(CCCN(C)C)c1ccccc1S2`
Found: 22.4

Lookup: Requested field: CC50 at 48 h. Item: CCCCCCC(C)(C)c1cc(O)c2c(c1)OC(C)(C)C1CCC(=O)CC21 (configuration not stated)
Found: 11

Lookup: Requested field: CC50 at 48 h. Item: `CN(C)CC/C=C1/c2ccccc2Sc2ccc(Cl)cc21`
Found: 13.8

Lookup: Requested field: CC50 at 48 h. Item: `COc1ccccc1N1CCN(CCCCNC(=O)c2ccc3ccccc3c2)CC1`
Found: 30.2

Lookup: Requested field: CC50 at 48 h. Item: `Cn1cncc1[C@@](N)(c1ccc(Cl)cc1)c1ccc2c(c1)c(-c1cccc(Cl)c1)cc(=O)n2C`
Found: 13.2

Lookup: Requested field: CC50 at 48 h. Item: `CN(C)CCCN1c2ccccc2CCc2ccc(Cl)cc21`
Found: 15.8

Lookup: Requested field: CC50 at 48 h. Item: CN1CCCC(CC2c3ccccc3Sc3ccccc32)C1 (configuration not stated)
Found: 10

The reported measurements were obtained from ChEMBL document CHEMBL4651402.
